test system: E. coli; test: antimicrobial spectrum, agar dilution MIC; assay type: cell-based; settings: Escherichia coli, strain DC-2; BHI agar, 20-24 hours
MIC reference
The figure you give is taken to be in µg/mL; do not add the unit.

Guide cases for MIC, answers given:
So what does the record say about MIC for `CC[C@H]1OC(=O)[C@H](C)[C@@H](O[C@H]2C[C@@](C)(OC)[C@@H](O)[C@H](C)O2)[C@H](C)[C@@H](O[C@@H]2O[C@H](C)C[C@H](N(C)C)[C@H]2O)[C@](C)(OC)C[C@@H](C)C(=O)[C@H](C)[C@H]2N(C3CC3)C(=O)O[C@]12C` ?
100

So what does the record say about MIC for `CC[C@H]1OC(=O)[C@H](C)[C@@H](O[C@H]2C[C@@](C)(OC)[C@@H](O)[C@H](C)O2)[C@H](C)[C@@H](O[C@@H]2O[C@H](C)C[C@H](N(C)C)[C@H]2O)[C@](C)(OC)C[C@@H](C)C(=O)[C@H](C)[C@H]2NC(=O)O[C@@]21C` ?
50

So what does the record say about MIC for `CC[C@H]1OC(=O)[C@H](C)[C@@H](O[C@H]2C[C@@](C)(OC)[C@@H](O)[C@H](C)O2)[C@H](C)[C@@H](O[C@@H]2O[C@H](C)C[C@H](N(C)C)[C@H]2O)[C@](C)(OC)C[C@@H](C)C(=O)[C@H](C)[C@H]2N(C)C(=O)O[C@]12C` ?
25

// switching to the query compound
So what does the record say about MIC for `CC[C@H]1OC(=O)[C@H](C)[C@@H](O[C@H]2C[C@@](C)(OC)[C@@H](O)[C@H](C)O2)[C@H](C)[C@@H](O[C@@H]2O[C@H](C)C[C@H](N(C)C)[C@H]2O)[C@](C)(OC)C[C@@H](C)C(=O)[C@H](C)[C@H]2N(Cc3ccccc3)C(=O)O[C@]12C` ?
25

* * *

MIC reference
test system: Pseudomonas aeruginosa; assay: antimicrobial spectrum, agar dilution MIC; type: cell-based; settings: Pseudomonas aeruginosa, strain K799/WT; BHI agar, 20-24 hours

Guide cases for MIC, answers given:
// fetch Pseudomonas aeruginosa MIC for `CC[C@H]1OC(=O)[C@H](C)[C@@H](O[C@H]2C[C@@](C)(OC)[C@@H](O)[C@H](C)O2)[C@H](C)[C@@H](O[C@@H]2O[C@H](C)C[C@H](N(C)C)[C@H]2O)[C@](C)(OC)C[C@@H](C)C(=O)[C@H](C)[C@H]2NC(=O)O[C@@]21C`
50 µg/mL

// fetch Pseudomonas aeruginosa MIC for `CC[C@H]1OC(=O)[C@H](C)[C@@H](O[C@H]2C[C@@](C)(OC)[C@@H](O)[C@H](C)O2)[C@H](C)[C@@H](O[C@@H]2O[C@H](C)C[C@H](N(C)C)[C@H]2O)[C@](C)(OC)C[C@@H](C)C(=O)[C@H](C)[C@H]2N(C3CC3)C(=O)O[C@]12C`
> 100 µg/mL

// fetch Pseudomonas aeruginosa MIC for `CC[C@H]1OC(=O)[C@H](C)[C@@H](O[C@H]2C[C@@](C)(OC)[C@@H](O)[C@H](C)O2)[C@H](C)[C@@H](O[C@@H]2O[C@H](C)C[C@H](N(C)C)[C@H]2O)[C@](C)(OC)C[C@@H](C)C(=O)[C@H](C)[C@H]2N(Cc3ccccc3)C(=O)O[C@]12C`
> 100 µg/mL

***
// fetch Pseudomonas aeruginosa MIC for `CC[C@H]1OC(=O)[C@H](C)[C@@H](O[C@H]2C[C@@](C)(OC)[C@@H](O)[C@H](C)O2)[C@H](C)[C@@H](O[C@@H]2O[C@H](C)C[C@H](N(C)C)[C@H]2O)[C@](C)(O)C[C@@H](C)C(=O)[C@H](C)[C@@H](O)[C@]1(C)O`
200 µg/mL

// fetch Pseudomonas aeruginosa MIC for `CC[C@H]1OC(=O)[C@H](C)[C@@H](O[C@H]2C[C@@](C)(OC)[C@@H](O)[C@H](C)O2)[C@H](C)[C@@H](O[C@@H]2O[C@H](C)C[C@H](N(C)C)[C@H]2O)[C@](C)(OC)C[C@@H](C)C(=O)[C@H](C)[C@H]2N(C)C(=O)O[C@]12C`
100 µg/mL

* * *

system: Pseudomonas cepacia; assay: antimicrobial spectrum, agar dilution MIC; assay type: cell-based; details: Burkholderia cepacia, strain 2961; BHI agar, 20-24 hours; read-out: MIC
readout: MIC (µg/mL)
The figure you give is taken to be in µg/mL; do not add the unit.

So what does the record say about MIC for `CC[C@H]1OC(=O)[C@H](C)[C@@H](O[C@H]2C[C@@](C)(OC)[C@@H](O)[C@H](C)O2)[C@H](C)[C@@H](O[C@@H]2O[C@H](C)C[C@H](N(C)C)[C@H]2O)[C@](C)(OC)C[C@@H](C)C(=O)[C@H](C)[C@H]2N(Cc3ccccc3)C(=O)O[C@]12C` ?
50

* * *

test system: gut contractions (stomach, duodenum, jejunum); details: dog, in vivo, iv, 4 mg/kg
readout: Gastrointestinal Motility Index
# answer = number (no unit)

Guide cases for Gastrointestinal Motility Index, answers given:
So what does the record say about Gastrointestinal Motility Index for `CC[C@H]1OC(=O)[C@H](C)[C@@H](O[C@H]2C[C@@](C)(OC)[C@@H](O)[C@H](C)O2)[C@H](C)[C@@H](O[C@@H]2O[C@H](C)C[C@H](N(C)C)[C@H]2O)[C@](C)(OC)C[C@@H](C)C(=O)[C@H](C)[C@H]2N(C)C(=O)O[C@]12C` ?
1.27

So what does the record say about Gastrointestinal Motility Index for `CC[C@H]1OC(=O)[C@H](C)[C@@H](O[C@H]2C[C@@](C)(OC)[C@@H](O)[C@H](C)O2)[C@H](C)[C@@H](O[C@@H]2O[C@H](C)C[C@H](N(C)C)[C@H]2O)[C@](C)(O)C[C@@H](C)C(=O)[C@H](C)[C@H]2N(C)C(=O)O[C@]12C` ?
5.83

So what does the record say about Gastrointestinal Motility Index for `CC[C@H]1OC(=O)[C@H](C)[C@@H](O[C@H]2C[C@@](C)(OC)[C@@H](O)[C@H](C)O2)[C@H](C)[C@@H](O[C@@H]2O[C@H](C)C[C@H](N(C)C)[C@H]2O)[C@](C)(OC)C[C@@H](C)C(=O)[C@H](C)[C@H]2NC(=O)O[C@@]21C` ?
1.18

// switching to the query compound
So what does the record say about Gastrointestinal Motility Index for `CC[C@H]1OC(=O)[C@H](C)[C@@H](O[C@H]2C[C@@](C)(OC)[C@@H](O)[C@H](C)O2)[C@H](C)[C@@H](O[C@@H]2O[C@H](C)C[C@H](N(C)C)[C@H]2O)[C@](C)(O)C[C@@H](C)C(=O)[C@H](C)[C@H]2NC(=O)O[C@@]21C` ?
3.60

* * *

system: Pseudomonas aeruginosa; experiment: antimicrobial spectrum, agar dilution MIC; format: cell-based; conditions: Pseudomonas aeruginosa, strain 5007; BHI agar, 20-24 hours
readout: MIC (µg/mL)
The figure you give is taken to be in µg/mL; do not add the unit.

So what does the record say about MIC for `CC[C@H]1OC(=O)[C@H](C)[C@@H](O[C@H]2C[C@@](C)(OC)[C@@H](O)[C@H](C)O2)[C@H](C)[C@@H](O[C@@H]2O[C@H](C)C[C@H](N(C)C)[C@H]2O)[C@](C)(OC)C[C@@H](C)C(=O)[C@H](C)[C@H]2NC(=O)O[C@@]21C` ?
100

So what does the record say about MIC for `CC[C@H]1OC(=O)[C@H](C)[C@@H](O[C@H]2C[C@@](C)(OC)[C@@H](O)[C@H](C)O2)[C@H](C)[C@@H](O[C@@H]2O[C@H](C)C[C@H](N(C)C)[C@H]2O)[C@](C)(O)C[C@@H](C)C(=O)[C@H](C)[C@@H](O)[C@]1(C)O` ?
200

So what does the record say about MIC for `CC[C@H]1OC(=O)[C@H](C)[C@@H](O[C@H]2C[C@@](C)(OC)[C@@H](O)[C@H](C)O2)[C@H](C)[C@@H](O[C@@H]2O[C@H](C)C[C@H](N(C)C)[C@H]2O)[C@](C)(OC)C[C@@H](C)C(=O)[C@H](C)[C@H]2N(C)C(=O)O[C@]12C` ?
100

* * *

test system: Strep. faecium; test: antimicrobial spectrum, agar dilution MIC; type: cell-based; conditions: Enterococcus faecium, ATCC8043, strain ATCC 8043; BHI agar, 20-24 hours
readout: MIC
Include the unit after the number when you answer.

Guide cases for MIC, answers given:
// fetch Strep. faecium MIC for CC[C@H]1OC(=O)[C@H](C)[C@@H](O[C@H]2C[C@@](C)(OC)[C@@H](O)[C@H](C)O2)[C@H](C)[C@@H](O[C@@H]2O[C@H](C)C[C@H](N(C)C)[C@H]2O)[C@](C)(OC)C[C@@H](C)C(=O)[C@H](C)[C@H]2N(C)C(=O)O[C@]12C [Example 4]
0.05 µg/mL

// fetch Strep. faecium MIC for CC[C@H]1OC(=O)[C@H](C)[C@@H](O[C@H]2C[C@@](C)(OC)[C@@H](O)[C@H](C)O2)[C@H](C)[C@@H](O[C@@H]2O[C@H](C)C[C@H](N(C)C)[C@H]2O)[C@](C)(O)C[C@@H](C)C(=O)[C@H](C)[C@@H](O)[C@]1(C)O [Erythromycin A]
0.1 µg/mL

// fetch Strep. faecium MIC for CC[C@H]1OC(=O)[C@H](C)[C@@H](O[C@H]2C[C@@](C)(OC)[C@@H](O)[C@H](C)O2)[C@H](C)[C@@H](O[C@@H]2O[C@H](C)C[C@H](N(C)C)[C@H]2O)[C@](C)(OC)C[C@@H](C)C(=O)[C@H](C)[C@H]2N(C3CC3)C(=O)O[C@]12C [Example 5]
0.1 µg/mL

// switching to the query compound
// fetch Strep. faecium MIC for CC[C@H]1OC(=O)[C@H](C)[C@@H](O[C@H]2C[C@@](C)(OC)[C@@H](O)[C@H](C)O2)[C@H](C)[C@@H](O[C@@H]2O[C@H](C)C[C@H](N(C)C)[C@H]2O)[C@](C)(OC)C[C@@H](C)C(=O)[C@H](C)[C@H]2NC(=O)O[C@@]21C [Example 2]
0.05 µg/mL

Hello, the source for this data is patent US4742049A, in case you need it.
